# pIC50 values compiled below
Target chain: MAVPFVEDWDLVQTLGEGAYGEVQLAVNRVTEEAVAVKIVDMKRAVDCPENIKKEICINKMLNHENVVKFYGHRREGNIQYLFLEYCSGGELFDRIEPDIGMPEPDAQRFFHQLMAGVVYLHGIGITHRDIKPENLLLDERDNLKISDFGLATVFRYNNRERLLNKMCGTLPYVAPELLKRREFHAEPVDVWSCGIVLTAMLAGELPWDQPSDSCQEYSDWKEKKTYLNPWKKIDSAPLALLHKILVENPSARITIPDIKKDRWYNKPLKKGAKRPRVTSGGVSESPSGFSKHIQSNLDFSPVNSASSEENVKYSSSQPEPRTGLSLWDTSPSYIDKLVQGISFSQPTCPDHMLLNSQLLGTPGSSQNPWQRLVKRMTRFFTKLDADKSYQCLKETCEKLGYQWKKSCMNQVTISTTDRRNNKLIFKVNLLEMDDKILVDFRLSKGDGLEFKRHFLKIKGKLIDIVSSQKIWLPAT
pIC50: −log10 of the molar value.

Use these answered entries as a reference point.
| smiles_repr | pIC50 |
| --- | --- |
| CC(=O)Nc1cccc(CNc2c(Nc3ccc(O)c(-c4ccccn4)c3)c(=O)c2=O)c1 | > 6.00 |
| O=c1c(NCc2ccc(O)c(O)c2)c(Nc2ccc(O)c(-c3ccccn3)c2)c1=O | > 7.00 |
| O=c1c(NCc2cccc(O)c2)c(Nc2ccc(O)c(-n3ccnc3)c2)c1=O | < 6.00 |
| CN(Cc1cccc(O)c1)c1c(Nc2ccc(O)c(-c3ccccn3)c2)c(=O)c1=O | > 6.00 |

Entry `O=c1c(NCc2ccc(F)c(O)c2)c(Nc2ccc(O)c(-c3ccccn3)c2)c1=O` , pIC50 reported as > 6.00

Entry `O=c1c(NCc2cccc(O)c2)c(Nc2ccc(O)c(-n3cccc3)c2)c1=O` , pIC50 reported as < 6.00

Entry `COc1ccc(Nc2c(NCc3cccc(O)c3)c(=O)c2=O)cc1-n1ccnc1` , pIC50 reported as < 6.00

Entry `O=c1c(NCc2cc(O)cc(O)c2)c(Nc2ccc(O)c(-c3ccccn3)c2)c1=O` , pIC50 reported as > 7.00
